Recorded cell number change values for a group of molecules are listed next.
# assay: qHTS Assay for Lipid Storage Modulators in Drosophila S3 Cells;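 on cell number change: cells counted by Cell Tracker Red CMTPX staining in the red channel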
# experimental_parameters: BODIPY lipid droplet fluorescence, 18-24 h, cells fed with added oleic acid; measured here: cell count max response
Hit rate of the full screen: of about 320,000 compounds, about 2,100 (0.66%) were called active. Inconclusive results (about 53%) are left out. This is one part of a sample in which actives are shown more often than they occur.
measured_metric: cell number change (%)

molecule: COc1ccc(S(=O)(=O)CCC(=O)Nc2ccc(OC)cc2OC)cc1
meas_value: -8.69
--
molecule: COc1ccc(Cn2nnnc2CN(Cc2cc3cccc(C)c3[nH]c2=O)C2CCCC2)cc1
meas_value: -3.93
--
molecule: CC(C)[C@H](NC(=O)c1ccco1)C(=O)NCc1ccccc1
meas_value: 17.1
--
molecule: CC(C)C(NC(=O)c1ccco1)C(=O)NCc1ccc(C(=O)O)cc1 (stereo not given)
meas_value: -31.6
--
molecule: O=C(Nc1ccncc1)c1sc2ccccc2c1Cl
meas_value: 17.8
--
molecule: CCOc1cc(/C=C2\SC(=Nc3ccc(F)cc3)N(c3ccc(F)cc3)C2=O)ccc1OCC(=O)O
meas_value: -5.36
--
molecule: COc1ccccc1CNC(=O)C1CCN(S(=O)(=O)c2ccc(N3CCCC3=O)cc2)CC1
meas_value: 16.5
--
molecule: COC(=O)c1c(C)[nH]c(C(=O)/C=C/c2ccc(C)cc2)c1C
meas_value: 11.4
--
molecule: COc1ccc(CCNC(=O)Cn2cccc2C(=O)c2ccccc2)cc1OC
meas_value: -21.4
--
molecule: CN(CCCC1CCCC1)C(=O)c1cc(COc2ccc(F)cc2F)on1
meas_value: 15.8

----------
# assay: qHTS Assay for Lipid Storage Modulators in Drosophila S3 Cells
# experimental_parameters: BODIPY lipid droplet fluorescence, 18-24 h, cells fed with added oleic acid; series mostly up to 46.1 µM
In all, about 320,000 compounds went through this assay and about 2,100 (0.66%) were called active. Roughly 53% stayed inconclusive and do not appear here. Calls follow the shape of the dose curve; as a rule, active = well fitted inhibition curve with a large enough effect in the signal ratio, with a control signal flat (not every such curve was filed as active); inconclusive = small, poorly fitted or top-dose-only effect, or effect the other way, or a change in a side signal; inactive = flat fitted curve, though single readings scatter; the % refers to the signal ratio. The sample holds actives, similar compounds and a random draw of the others, so the mix is not that of the screen.
Outcome codes: active, inactive

molecule: CCN(CC)CCC(c1ccc(N(C)C)cc1)c1c(OC)cc(OC)c2c(-c3ccccc3)cc(=O)oc12 (stereo not drawn)
assigned_label: inactive

molecule: COc1ccccc1Nc1nnc(SCC(=O)NC2CC2)s1
assigned_label: inactive

molecule: O=C(c1ccc2c(c1)OCO2)C1CCCN(Cc2cc(F)ccc2-n2cccn2)C1 (stereo not drawn)
assigned_label: inactive

molecule: CSc1ccc(CCNC(=O)CN2C(=O)CCSc3ccccc32)cc1
assigned_label: inactive

molecule: CN(Cc1ccccc1)C(=O)COC(=O)c1ccccc1Nc1ccccc1
assigned_label: inactive

molecule: O=C(CSc1nnc(Nc2ccccc2F)s1)NC1CCCC1
assigned_label: active

molecule: N#C/C(=C/c1ccc(C(=O)O)cc1)C(=O)Nc1ccccc1
assigned_label: inactive

molecule: CCN1CCN(c2ccc([N+](=O)[O-])c(Sc3nc4ccccc4[nH]3)c2)CC1
assigned_label: inactive

molecule: N#C/C(=C/c1ccc(OCc2ccc(C(=O)O)cc2)cc1)C(=O)Nc1ccccc1
assigned_label: inactive

molecule: CCOC(=O)Cn1c(=N)n(CCOc2ccc(Br)cc2)c2ccccc21
assigned_label: inactive

molecule: N#C/C(=C/c1ccccc1)C(=O)NCc1ccccc1
assigned_label: active

molecule: N#C/C(=C\c1ccc(OCc2ccccc2)cc1)C(=O)Nc1ccc(C(=O)O)cc1
assigned_label: active

molecule: COc1ccc(CCNC(=O)C2CCC(=O)N2Cc2ccccc2Cl)cc1OC (stereo not drawn)
assigned_label: inactive

molecule: COc1ccc(/C=C(\C#N)C(=O)NCc2ccccc2)cc1
assigned_label: inactive

molecule: CCc1ccc(NC(=S)N(CCN2CCOCC2)Cc2ccccc2F)cc1
assigned_label: inactive

molecule: CC(C)(C)n1nc2c(c1NC(=O)c1ccco1)CS(=O)C2 (stereo not drawn)
assigned_label: active

molecule: CCC(=O)Nc1ccc(NC(=O)c2ccccc2Cl)nc1
assigned_label: inactive

molecule: CNc1snc(C)c1C(=O)OCC(=O)N(C)Cc1ccccc1
assigned_label: active

molecule: Cc1ccc(S(=O)(=O)NN2C(=O)c3ccccc3NC2c2ccccc2)cc1 (stereo not drawn)
assigned_label: inactive

molecule: CN(C)S(=O)(=O)N(CCN1CCOCC1)Cc1ccccc1F
assigned_label: active

molecule: O=C(Nc1c2c(nn1-c1ccccc1)CS(=O)C2)c1ccco1 (stereo not drawn)
assigned_label: inactive

molecule: N#C/C(=C\c1cccnc1)C(=O)Nc1ccccc1
assigned_label: inactive

molecule: O=C(CSc1nnc(NC(=O)c2ccccc2)s1)NC1CCCC1
assigned_label: inactive

Source of measurements: PubChem BioAssay AID2685
